- Tested on: Methionine sulfoxide reductase A (Bos taurus)
- protocol: bovine MsrA enzyme inhibitors, primary screen, biochemical, absorbance, HTS (AID 651718)
- assay.setup: purified bovine MsrA, absorbance read-out; at 15.5 µM
About 2,700 (0.75%) of roughly 360,000 compounds were called active. Rule as the data show it: active = inhibition above about 4.5%; inactive = the rest. For the sample, actives were picked, then their nearest neighbours and some compounds at random.
API: response.call in Y = active, N = inactive

Recorded results for 9 compounds are shown here.
compound	tested.system	group
CN(Cc1ccccc1)C(=O)[C@@H]1CCCN1C(=O)[C@@H]1CCCN1C(=O)c1c(F)cccc1F	Methionine sulfoxide reductase A (Bos taurus)	N
CCN(CC)CCCC(C)n1c2nc(=O)[nH]c(=O)c-2nc2cc(Cl)ccc21 (stereo not given)	Methionine sulfoxide reductase A (Bos taurus)	Y
Cc1cccc(-n2c(O)c(C=Nc3ccccc3N)c(=O)[nH]c2=O)c1	Methionine sulfoxide reductase A (Bos taurus)	Y
Cc1cc2nc3c(=O)[nH]c(=O)nc-3n(C[C@H](O)[C@H](O)[C@H](O)CO)c2cc1C	Methionine sulfoxide reductase A (Bos taurus)	N
Cc1cc(C(=O)NNC(=S)NC(C)c2ccccc2)cs1 (stereo not given)	Methionine sulfoxide reductase A (Bos taurus)	N
Cc1ccccc1-n1c(C)cc(/C=N/NC(=O)c2ccc(CN3CCOCC3)cc2)c1C	Methionine sulfoxide reductase A (Bos taurus)	N
CC(=NNC(N)=O)c1ccc(Cl)c(-n2cccc2)c1	Methionine sulfoxide reductase A (Bos taurus)	N
Cc1cc(Br)cn2c(Cc3ccccc3C(F)(F)F)c(-c3ccc(C#N)cc3)nc12	Methionine sulfoxide reductase A (Bos taurus)	N
COC(=O)CN1C(=O)C(O)=C(C(C)=O)C1c1ccc([N+](=O)[O-])cc1 (stereo not given)	Methionine sulfoxide reductase A (Bos taurus)	Y

Query compound follows.
q: Which result was noted for this compound in the test: COc1ccc(CCNC(=O)CCc2ccccc2O)cc1OC
a: N
